# tested.system: SpnFADS (Streptococcus pneumoniae)
# Construct: gene SP_1110; full-length bifunctional enzyme from pET-15b in E. coli BL21 Star (DE3), His6-tag removed; riboflavin kinase activity of the C-terminal module; functional form monomer
# Sequence (A0A0H2UPY5 1-305): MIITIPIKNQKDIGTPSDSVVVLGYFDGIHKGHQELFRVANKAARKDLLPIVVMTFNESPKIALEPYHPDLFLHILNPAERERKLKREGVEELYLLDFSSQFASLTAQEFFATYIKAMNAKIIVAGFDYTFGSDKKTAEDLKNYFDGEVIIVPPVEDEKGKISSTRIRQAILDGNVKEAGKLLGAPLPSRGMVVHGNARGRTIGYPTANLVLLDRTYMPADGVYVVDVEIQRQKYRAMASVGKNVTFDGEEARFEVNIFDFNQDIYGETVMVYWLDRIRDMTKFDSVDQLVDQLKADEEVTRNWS
# measurement.description: RFK activity, HPLC of flavins, global Lineweaver-Burk fit
# Type: biochemical
# experimental.parameters: read-out: Ki^FMN
reported.metric: Ki
Remember to follow the number with its unit.

The compound Cc1cc2nc3c(=O)[nH]c(=O)nc-3n(C[C@H](O)[C@H](O)[C@H](O)COP(=O)(O)O)c2cc1C [FMN, flavin mononucleotide] on SpnFADS (Streptococcus pneumoniae): Ki was 1300 nM

====

# tested.system: SpnFADS (Streptococcus pneumoniae)
# Construct: gene SP_1110; full-length bifunctional enzyme from pET-15b in E. coli BL21 Star (DE3), His6-tag removed; riboflavin kinase activity of the C-terminal module; functional form monomer
# measurement.description: biochemical
# Design: Isothermal titration calorimetry, ligand titrated into free or ligand-pre-bound SpnFADS, 20 °C, PIPES pH 7.0
# experimental.parameters: enzyme pre-bound to ATP; 0.8 mM MgCl2
reported.metric: Kd (µM)
Give the value in µM but do not write µM after it.

// Kd lookup, molecule = Cc1cc2nc3c(=O)[nH]c(=O)nc-3n(C[C@H](O)[C@H](O)[C@H](O)COP(=O)(O)O)c2cc1C [FMN, flavin mononucleotide] , result: 1.6

====

# tested.system: SpnFADS (Streptococcus pneumoniae, UniProt A0A0H2UPY5)
# Construct: gene SP_1110; full-length bifunctional enzyme from pET-15b in E. coli BL21 Star (DE3), His6-tag removed; riboflavin kinase activity of the C-terminal module; functional form monomer
# measurement.description: biochemical
# Set-up: Isothermal titration calorimetry, ligand titrated into free or ligand-pre-bound SpnFADS, 20 °C, PIPES pH 7.0
# experimental.parameters: enzyme pre-bound to ADP; no MgCl2; read-out: Kd (μM), 0.0 mM MgCl2
reported.metric: Kd (µM)
Give the value in µM but do not write µM after it.

# compound, tested.system, result.units, meas.value
measured = [
    ("Cc1cc2nc3c(=O)[nH]c(=O)nc-3n(C[C@H](O)[C@H](O)[C@H](O)CO)c2cc1C [RF, riboflavin]", "SpnFADS (Streptococcus pneumoniae, UniProt A0A0H2UPY5)", "µM", 0.3),
]

The compound Cc1cc2nc3c(=O)[nH]c(=O)nc-3n(C[C@H](O)[C@H](O)[C@H](O)COP(=O)(O)O)c2cc1C [FMN, flavin mononucleotide] on SpnFADS (Streptococcus pneumoniae, UniProt A0A0H2UPY5): Kd was 7.9
